B1: CHMP4C (parent)
chain: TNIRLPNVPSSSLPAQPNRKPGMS

Variants of: B1
Experiment: protein stability index of a GFP-peptide fusion (GPS, HEK-293T) (PSI 1-6); higher = more stable;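 also: lentivirally expressed fusions sorted by FACS into six bins by GFP to DsRed ratio, PSI derived from sequencing read proportions per bin multiplied by bin number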
Details: c terminus: a fixed tail appended
endpoint: protein stability index
Just the number.

These recorded examples may help you get a feel for the data.
entry sequence: TNIRLPNVPSSSLPAQQNRKPGMS
protein stability index: 3.82
--
entry sequence: TNIRLPNVPSSSLPAQPMRKPGMS
protein stability index: 4.66
--
entry sequence: TNIRLPNVPSSSLPAQPNRKPDMS
protein stability index: 4.78
--
entry sequence: GNIRLPNVPSSSLPAQPNRKPGMS
protein stability index: 4.8

Recorded protein stability index of `TNIRLPNVPSSSLPAQPERKPGMS` , please.
4.41

Ok, now `TNIRLPNVPSSSLPAQPNRKPMMS`
4.2

Ok, now `TNIRLPNVPSSSLPAQPNRKPGMM`
3.99

Ok, now `TNIRLPNVPSGSLPAQPNRKPGMS`
4.51

Ok, now `TNIRLHNVPSSSLPAQPNRKPGMS`
3.02

Ok, now `TNIRLPNVPSSSLPAQPNRYPGMS`
4.02
